assayed system: Genome polyprotein (dengue virus type 2) (UniProt P29990)
assay overview: Inhibition of dengue2 virus NS2B/NS3 protease activity for Boc-Gly-Arg-Arg-MCA cleavage at 400 ppm
Documented inhibition across a set of compounds
reported endpoint: inhibition (%)

CC(C)=CC[C@@H]1C(C)=CC[C@@H](c2ccccc2)[C@@H]1C(=O)c1c(O)cc(O)cc1O [4-HYDROXYPANDURATIN A] : 99.8
COc1cc(O)cc(O)c1C(=O)/C=C/c1ccccc1 : 71.3
COc1cc(O)c(C(=O)[C@@H]2[C@H](CC=C(C)C)C(C)=CC[C@H]2c2ccccc2)c(O)c1 : 99.8
O=C1C[C@@H](c2ccccc2)Oc2cc(O)cc(O)c21 : 56.1

====

assayed system: Genome polyprotein (dengue virus type 2)
assay overview: Inhibition of dengue2 virus NS2B/NS3 protease activity for Boc-Gly-Arg-Arg-MCA cleavage at 240 ppm
reported endpoint: inhibition

CC(C)=CC[C@@H]1C(C)=CC[C@@H](c2ccccc2)[C@@H]1C(=O)c1c(O)cc(O)cc1O [4-HYDROXYPANDURATIN A] : 97.3%
COc1cc(O)cc(O)c1C(=O)/C=C/c1ccccc1 [CARDAMOMIN] : 50.1%
O=C1C[C@@H](c2ccccc2)Oc2cc(O)cc(O)c21 : 47.3%
COc1cc(O)c(C(=O)[C@@H]2[C@H](CC=C(C)C)C(C)=CC[C@H]2c2ccccc2)c(O)c1 [PANDURATIN A] : 92.2%

====

# pKi per entry for Genome polyprotein (dengue virus type 2)
pKi: −log10 of the molar value.
reported endpoint: pKi

COc1cc(O)c(C(=O)[C@@H]2[C@H](CC=C(C)C)C(C)=CC[C@H]2c2ccccc2)c(O)c1 : 4.60
COc1cc(O)cc(O)c1C(=O)/C=C/c1ccccc1 : 3.42
CC(C)=CC[C@@H]1C(C)=CC[C@@H](c2ccccc2)[C@@H]1C(=O)c1c(O)cc(O)cc1O [4-HYDROXYPANDURATIN A] : 4.68
COc1cc(O)c2c(c1)O[C@H](c1ccccc1)CC2=O : 3.46

====

assayed system: Genome polyprotein (dengue virus type 2) (UniProt P29990)
assay overview: Inhibition of dengue2 virus NS2B/NS3 protease activity for Boc-Gly-Arg-Arg-MCA cleavage at 120 ppm
reported endpoint: inhibition (%)

O=C1C[C@@H](c2ccccc2)Oc2cc(O)cc(O)c21 : 30.1
COc1cc(O)cc(O)c1C(=O)/C=C/c1ccccc1 : 39.4
CC(C)=CC[C@@H]1C(C)=CC[C@@H](c2ccccc2)[C@@H]1C(=O)c1c(O)cc(O)cc1O [4-HYDROXYPANDURATIN A] : 87.6
COc1cc(O)c(C(=O)[C@@H]2[C@H](CC=C(C)C)C(C)=CC[C@H]2c2ccccc2)c(O)c1 : 87.7
